Just for reference, PubChem BioAssay (NCI) is where these values come from.

# MEASUREMENT_DESCRIPTION: NCI Yeast Anticancer Drug Screen. Data for the cln2 rad14 strain (AID 165);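 further: 0% = growth equal to vehicle treated cultures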
# CONDITION_SET: S. cerevisiae cln2 rad14 strain, active compounds read high; at 50.0 µM unless noted
About 79,000 compounds went through this panel and 15% of them were active in at least one assay; those are over-represented in the sample as a whole.
RECORDED_ENDPOINT: growth inhibition (%)
One number for each entry, in %.

Reference set (4 entries):
{"columns": ["COMPOUND", "growth inhibition [%]"],
 "data": [
  ["S=C(c1ccccc1)c1cccc2ccccc12", 2.8],
  ["O=C(N/N=C/c1ccc(O)cc1)C(c1ccccc1)N1CCCCC1 (centres undefined)", -18.8],
  ["CCOC(=O)NC(=O)c1cn(CCCCCCCCCCC(=O)N2CCN(CCn3cc(C(=O)NC(=O)OCC)c(=O)[nH]c3=O)CC2)c(=O)[nH]c1=O", 5.8],
  ["CC(=O)OCC1COC(c2ccc(C)cc2)O1 (centres undefined)", -2.5]
]}

# per-item lookup of growth inhibition; items listed below
1. Nc1cccc(OCCCCCOc2cccc(N)c2)c1
2. Clc1ccccc1NN(Cc1ccncc1)c1ccccc1Cl
3. C=C1CC(CCCC2CC(=C)C(=O)O2)OC1=O (centres undefined)
4. Oc1cc(O)c2cc(O)c(-c3ccc(O)c(O)c3)[o+]c2c1
5. COc1cc2cnc3c4cc(OC(C)C)c(OC)cc4ccc3c2cc1OC
6. Nc1c(Br)cc(Br)cc1C(=O)O
7. O=C(O)CNOCN1C(=O)c2ccccc2C1=O
8. COc1ccccc1CN1CCCN(Cc2ccccc2OC)C1c1cccc(F)c1

1. 6.6
2. 26.9
3. -50.7
4. 4.1
5. 5.75
6. 17.1
7. -21.6
8. 16.4

Batch request: growth inhibition for each of the following compounds.
1. O=C(N1CCN(C(=O)S(=O)(=O)c2ccccc2)CC1)S(=O)(=O)c1ccccc1
2. O=C(O)CC(CS(=O)O)C(=O)O (centres undefined)
3. NC1=CNC(=O)C1
4. O=Cc1c[nH]c2ccc(F)cc12

20.1
1.05
-1.65
14.3

====

# MEASUREMENT_DESCRIPTION: NCI Yeast Anticancer Drug Screen. Data for the rad50 strain (AID 155);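 further: 0% = growth of vehicle-only cultures of the same strain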
# CONDITION_SET: S. cerevisiae rad50 strain growth inhibition, active compounds read high; at 50.0 µM unless noted
Compounds without any hit were thinned out: in the full panel of roughly 79,000, 15% have a hit.
Give measured growth inhibition for each item. Keep answers brief.
Answers are plain numbers, in %.

Illustrative cases are given below, each with its answer.
{"columns": ["COMPOUND", "growth inhibition, %"],
 "data": [
  ["CCOC(=O)c1nc2ccccc2c(=O)[nH]1", -1.85],
  ["Nc1nc(-c2ccco2)cc(-c2ccco2)n1", -23.4],
  ["O=C1CCCc2ccc3c(c21)CC1(Cc2cc4c(cc2C1)CCCC4)C3", -22.6],
  ["Cc1ccc(S(=O)(=O)N/N=C(\\c2nc3ccc(Cl)cc3[nH]c2=O)C(O)c2cccc([N+](=O)[O-])c2)cc1 (stereo not given)", -1.5],
  ["CC(C)OC(=O)Nc1ccc(O)cc1", 10.8]
]}

The following compounds each have a reported value; give each one's growth inhibition.
1. O=CC(CO)C(C=O)n1ncc2ccccc21 (stereo not given)
2. CC12CC[C@H](O)C(C)(C)[C@H]1CC[C@](C)(O)C2COc1ccc2ccc(=O)oc2c1 (stereo not given in full)
3. OCC(O)COc1ccc(Cl)cc1 (stereo not given)
4. CC(=Nc1cccc(Cl)c1)c1ccncc1

[30.2, 86.3, -5, -44]
